Data provenance: patent US9845310B2

Kindly state EC50 for each of the entries shown.
target: APJ (Homo sapiens (Human)); assay: [35S]GTPγS binding assay on membranes from CHO cells stably expressing human APJ receptor; format: biochemical; conditions: read-out: Activity hAPJ SPA EC50 IP
Answers are plain numbers, in nM.

# COMPOUND, VALUE UNIT, EC50
rows = [
    ("COc1cccc(OC)c1-n1c(NS(=O)(=O)[C@@H]2CCCO[C@@H]2c2ncc(C)cn2)nnc1-c1cncc(C)c1 (single isomer, unassigned) [Example 644.0]", "nM", 180),
    ("COc1cccc(OC)c1-n1c(NS(=O)(=O)[C@H](C)[C@@H](OC(C)C)c2ncc(C)cn2)nnc1-c1cccnc1 (stereo in doubt) [Example 626.0]", "nM", 1.8),
    ("COc1cccc(OC)c1-n1c(NS(=O)(=O)[C@@H](C)[C@H](OC)c2ncc(C)o2)nnc1-c1cncc(C)c1 (single isomer, unassigned) [Example 632.0]", "nM", 210),
]

For every item below, please supply its EC50.
1. COc1cccc(OC)c1-n1c(NS(=O)(=O)[C@H](C)[C@@H](OC(C)C)c2ncc(C)cn2)nnc1-c1cccnc1 (stereo in doubt) [Example 624.0]
2. COc1cccc(-c2nnc(NS(=O)(=O)[C@@H]3CCCO[C@@H]3c3ncc(C)cn3)n2-c2c(OC)cccc2OC)n1 (single isomer, unassigned) [Example 656.0]

-- reply
1. 160
2. 13

====

biological target: UniProt P35414; assay: [35S]GTPγS binding assay on membranes from CHO cells stably expressing human APJ receptor; format: biochemical; settings: Activity hAPJ SPA EC50 IP (μM)
RECORDED METRIC: EC50 (µM)
Give bare numbers, in µM.

Look over these answered cases.
# COMPOUND, EC50, µM
records = [
    ("COc1ccc(Cl)c(OC)c1-n1c(-c2cncc(C)c2)nnc1S(=O)(=O)NCCc1ccc(Cl)cc1", 0.31),
    ("CC#Cc1cnc([C@@H](OC)[C@H](C)S(=O)(=O)Nc2nnc(-c3cncc(C)c3)n2-c2c(OC)cccc2OC)nc1", 0.0013),
    ("COc1cccc(-c2nnc(NS(=O)(=O)[C@H](C)[C@@H](OC(C)C)c3ncc(C)cn3)n2-c2c(OC)cccc2OC)n1 (single isomer, unassigned)", 0.002),
]

For every item below, please supply its EC50.
1. COc1cccc(-c2nnc(NS(=O)(=O)[C@@H](C)[C@H](O)c3ccc(F)cc3S(C)(=O)=O)n2-c2c(OC)cccc2OC)n1
2. COc1cccc(-c2nnc(NS(=O)(=O)C[C@H](O)c3ccc(C#N)cc3S(C)(=O)=O)n2-c2c(OC)cccc2OC)n1 (mixture of isomers)

-- reply
1: 0.0011; 2: 0.00024

====

molecular target: APJ (Homo sapiens (Human), UniProt P35414); experiment: [35S]GTPγS binding assay on membranes from CHO cells stably expressing human APJ receptor; assay type: biochemical; details: read-out: Activity hAPJ SPA EC50 IP
Sequence (P35414 whole entry): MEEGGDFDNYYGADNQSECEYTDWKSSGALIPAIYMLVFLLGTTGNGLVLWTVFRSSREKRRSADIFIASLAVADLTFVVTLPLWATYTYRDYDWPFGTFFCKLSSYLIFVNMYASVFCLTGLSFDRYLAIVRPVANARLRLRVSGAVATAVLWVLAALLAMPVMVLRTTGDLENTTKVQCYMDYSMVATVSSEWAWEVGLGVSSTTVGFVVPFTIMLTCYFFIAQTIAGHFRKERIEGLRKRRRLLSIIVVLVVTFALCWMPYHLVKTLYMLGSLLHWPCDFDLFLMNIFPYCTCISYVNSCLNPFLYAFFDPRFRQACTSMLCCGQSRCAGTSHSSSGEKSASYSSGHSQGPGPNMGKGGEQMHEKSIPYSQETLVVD
Classify by EC50. Ranges: bottom end = under 3 nM, midrange = from 3 nM up to 100 nM, top end = 100 nM and over

# COMPOUND, ASSIGNED LABEL
measured = [
    ("COc1cccc(OC)c1-n1c(NS(=O)(=O)[C@@H](C)Cc2ncc(F)cn2)nnc1-c1cncc(C)c1 (mixture of isomers)", "midrange"),
]

-- ask Dear colleague, I would appreciate it if you could identify the bin for COc1cccc(OC)c1-n1c(NS(=O)(=O)[C@@H](C)[C@H](C)c2ncc(F)c([C@@H]3COCCO3)n2)nnc1-c1cccc(OCC(O)(C(F)(F)F)C(F)(F)F)n1 (single isomer, unassigned) [Example 639.0] and reply at your convenience.
-- reply top end

-- ask Dear colleague, I would appreciate it if you could identify the bin for COc1cccc(-c2nnc(NS(=O)(=O)[C@@H]3CCCO[C@@H]3c3ncc(C)cn3)n2-c2c(OC)cccc2OC)n1 (single isomer, unassigned) [Example 654.0] and reply at your convenience.
-- reply top end

-- ask Dear colleague, I would appreciate it if you could identify the bin for COc1cccc(-c2nnc(NS(=O)(=O)[C@@H]3CCCO[C@@H]3c3ncc(C)cn3)n2-c2c(OC)cccc2OC)n1 (single isomer, unassigned) [Example 655.0] and reply at your convenience.
-- reply top end

-- ask Dear colleague, I would appreciate it if you could identify the bin for COc1cccc(-c2nnc(NS(=O)(=O)[C@H](C)[C@@H](O)c3cn4ccccc4n3)n2-c2c(OC)cccc2OC)n1 (mixture of isomers) and reply at your convenience.
-- reply bottom end

-- ask Dear colleague, I would appreciate it if you could identify the bin for COc1cccc(OC)c1-n1c(NS(=O)(=O)[C@@H](C)[C@H](O)c2ccc(C#N)cc2)nnc1-c1cncc(C)c1 (mixture of isomers) [Example 247.0] and reply at your convenience.
-- reply midrange

-- ask Dear colleague, I would appreciate it if you could identify the bin for CCNC(=O)c1cccc(-c2nnc(NS(=O)(=O)[C@@H](C)Cc3ncc(F)cn3)n2-c2c(OC)cccc2OC)n1 (mixture of isomers) and reply at your convenience.
-- reply midrange

-- ask Dear colleague, I would appreciate it if you could identify the bin for COc1cccc(OC)c1-n1c(NS(=O)(=O)[C@@H]2CCCO[C@@H]2c2ncc(C)cn2)nnc1-c1cncc(C)c1 (single isomer, unassigned) [Example 643.0] and reply at your convenience.
-- reply top end

-- ask Dear colleague, I would appreciate it if you could identify the bin for COc1cccc(-c2nnc(NS(=O)(=O)[C@@H](C)[C@H](OC)c3ccc(C#N)cc3C#N)n2-c2c(OC)cccc2OC)n1 (mixture of isomers) and reply at your convenience.
-- reply bottom end

-- ask Dear colleague, I would appreciate it if you could identify the bin for CCO[C@@H](c1cnc(C)cn1)[C@@H](C)S(=O)(=O)Nc1nnc(-c2cccc(OC)n2)n1-c1c(OC)cccc1OC (single isomer, unassigned) [Example 588.0] and reply at your convenience.
-- reply bottom end

-- ask Dear colleague, I would appreciate it if you could identify the bin for CCO[C@@H](c1cnc(C)cn1)[C@@H](C)S(=O)(=O)Nc1nnc(-c2cccc(OC)n2)n1-c1c(OC)cccc1OC (single isomer, unassigned) [Example 589.0] and reply at your convenience.
-- reply midrange
